- test_system: T1, Anti-CRP antibody(r)
- T1 construct: also called rabbit IgG (CRP)
- test_method_notes: labelled peptide on antibody immobilised on microplate; antigen CRP
Ends that are not written are not given here. FAM = carboxyfluorescein (FAM) fluorescent label
reported_metric: fluorescence intensity in solution (S) before antigen binding

INSERT INTO assay_data (binder, result_value) VALUES
  ('{FAM}-VYYCFQGSHVPFTK (Synthetic 14-mer homologous to the FR3 or FR4 region of the light chain; also called L2 switching peptide; second peptide compound L2) [L2 peptide]', 3270),
  ('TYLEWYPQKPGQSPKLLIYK (not fully specified (N-terminus), Synthetic 20-mer homologous to the FR2 region of the light chain; The label differs between experiments; also called L1 switching peptide; first peptide compound L1) [L1 peptide]', 741),
  ('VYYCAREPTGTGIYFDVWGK (not fully specified (N-terminus), Synthetic 20-mer homologous to the FR3 or FR4 region of the heavy chain; The label differs between experiments; also called H2 switching peptide; fourth peptide compound H2) [H2 peptide]', 2100),
  ('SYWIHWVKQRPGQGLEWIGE (not fully specified (N-terminus), Synthetic 20-mer homologous to the FR2 region of the heavy chain; The fluorescent label differs between experiments; also called H1 switching peptide; third peptide compound H1) [H1 peptide]', 2240);
